- Test system: PC-3 prostate
- procedure-summary: NCI-60 one-dose screen, 48 h
- condition-description: 10 µM unless noted
This is part of a sample that, as a whole, favours compounds with a hit. Of some 83,000 tested, about 20% had one in any assay. Active and inactive are the calls of the source. The calls were made as follows: active = growth percent below 10; inactive = the rest.
Select the correct class. Options are active, inactive and nothing else.

>>> assigned_label("CCCCCCCCCCCCCCCCCCNC(=S)N/N=C/c1ccc(OC)c(OC)c1")
"inactive"
>>> assigned_label("CCN(CC)CCSC(=O)C(O)(c1ccccc1)C1CCCC1 (centres undefined)")
"inactive"
>>> assigned_label("COCc1nc2ccccc2[nH]1")
"inactive"
>>> assigned_label("O=S(=O)(/N=c1/n(-c2ccccc2)nc2n1CCN2C1=NCCN1)c1ccc(-c2ccccc2)cc1")
"inactive"
>>> assigned_label("CN(C)Cc1ccc[nH]1")
"inactive"
>>> assigned_label("CN(C)C(=S)Sc1ccc([N+](=O)[O-])cc1[N+](=O)[O-]")
"inactive"

Assay result, entry COc1ccc(-c2ccc(NNC(=O)c3ccc(F)cc3)nn2)cc1OC — outcome? inactive

Assay result, entry Cc1ccc(N)c(O)c1 — outcome? inactive

Assay result, entry O=C(N/N=C/c1ccc([N+](=O)[O-])cc1)c1ccc(Br)o1 — outcome? inactive

Assay result, entry O=C(Nc1ccc(F)cc1)c1ccccc1 — outcome? inactive

Assay result, entry O=C(N=c1n(-c2ccccc2)nc2n1CCN2C1=NCCN1C(=O)c1ccc(Cl)cc1)c1ccc(Cl)cc1 — outcome? inactive

Assay result, entry N#CCCc1c[nH]c2ccccc12 — outcome? inactive

Assay result, entry CC[C@]12C=CCN3CC[C@@]4(c5ccc(OC)cc5N(C)[C@H]4[C@@](O)(C(=O)OC)[C@@H]1OC(=O)CCC(=O)N[C@H](Cc1c[nH]c4ccccc14)C(=O)OC)[C@@H]32 — outcome? active

====

- Test system: HT29 colon
- procedure-summary: NCI-60 one-dose screen, 48 h (100 = growth as untreated, 0 = no growth, -100 = all killed)
- condition-description: 10 µM unless noted
Compounds without any hit were thinned out: in the full panel of roughly 83,000, 20% have a hit. Calls of active or inactive are those of the source. Rule for the calls: active = growth percent below 10; inactive = the rest.
assay-endpoint: growth

Here is how some compounds turned out for growth.
>>> value_measured("CCN(CCO)CCC(=O)c1ccc([N+](=O)[O-])cc1")
"105% (inactive)"
>>> value_measured("O=C1Cc2c(sc3c(F)cccc23)C(c2ccccc2[N+](=O)[O-])N1 (stereo not given)")
"112% (inactive)"
>>> value_measured("COc1cc(Cl)cc(-c2nn(C(=O)NS(=O)(=O)c3ccccc3)cc2-c2ccncc2)c1")
"41.1% (inactive)"
>>> value_measured("O=C1NC(=O)C(Cc2ccc(OCc3ccc(-c4cc(F)c(F)c(F)c4)cc3)cc2)S1 (stereo not given)")
"107% (inactive)"

// next entry
Given the compound CCCCCn1sc(=O)n(Cc2ccc(CNC(=O)OCc3ccc4cccc(O)c4n3)cc2)c1=O , what is its reported growth? -49.2% (active)

====

- Tested on: SK-MEL-5 melanoma
- procedure-summary: NCI-60 one-dose screen, 48 h (100 = growth as untreated, 0 = no growth, -100 = all killed)
- condition-description: 10 µM unless noted
Compounds without any hit were thinned out: in the full panel of roughly 83,000, 20% have a hit.
assay-endpoint: growth (%)
Form entry: value (%) — number only.

Here is how some compounds turned out for growth.
>>> value_measured("O=C(Nc1cccc(F)c1)c1cc(=O)[nH]c2cc(Br)ccc12")
32
>>> value_measured("CC(C)(C)c1cc(C(=O)Nc2ccccc2C(=O)NCCN)cc(C(C)(C)C)c1")
46
>>> value_measured("CC(C)CSc1ncnc2nc[nH]c12")
95.6
>>> value_measured("Cn1cc(-c2noc(-c3cn(C)c4ncc(F)cc34)n2)c2ccccc21")
82.8

Given the compound CCN(CC)c1ccc2cc(C(Nc3ccc(Br)c(C(F)(F)F)c3)c3nnnn3C(C)(C)C)c(=O)oc2c1 (stereo not given) , what is its reported growth? 84.7
